System: ATP;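 note: ATP exposure 15 min at 22 °C before imaging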
Test: switch fluorescence ratio, 500 uM ATP over buffer (Cy3 cluster intensity, sum of 5 cycles each) (fold (ratio)); higher = stronger signal-on switching upon ATP binding; sequences stand for … in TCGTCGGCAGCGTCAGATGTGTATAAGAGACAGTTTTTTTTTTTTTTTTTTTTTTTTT…TC
Conditions: aptamer strand: ATP DNA aptamer (quencher-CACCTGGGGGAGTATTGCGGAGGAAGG + anchor), 100 nM annealed; ATP concentration: 500 uM
Below, each of the sequences is paired with its reported switch fluorescence ratio value.
assay.metric: switch fluorescence ratio

GTAGCTGGGG : 0.98
GGGGGGTGGC : 1.05
AGGACGTTGG : 0.963
CAAGTGAGGC : 0.987
ATGGTTCCTG : 1.03
GTAGTGTGGT : 0.999
AGGGTGAATA : 1.01
TAGAATATAT : 1.78
ACCGTGCTTA : 1.01
TCCCCTGGTT : 1.64
GATCGTTGTC : 0.988
ATTGATCTCC : 1.03
TCAATTCGAG : 0.988
TTCCCATGGG : 1.02
GGGTTGTATT : 0.991
ATAAGTTCCG : 0.996
ATGAGGGCTT : 0.981
ATGTAGTCGC : 1
AAATCATTAT : 1.01
GCATTGTGTG : 0.991
GATGGGATTG : 0.966
TCGATAGCGA : 1.19
TAGTTAGTGT : 0.981
GATATTGGTT : 1.02
TTGGGAGGAT : 1.12
GGTATTATTT : 0.995
TCAAAGTGTA : 0.968
TTTGTTCTTT : 1.02
GGCCTATCAC : 1.02
CTGTAGGGAC : 1.18
TGAGGGTGTT : 0.998
GAGAGGGTAT : 0.966
CGTGAATAGT : 1.03
GGGGGCCCTT : 1.02
AACTCTGTTA : 0.982
GGGGATCGGG : 0.965
ATCCGGTTAT : 1.03
TTTAATGCG : 1.01
CAGTAGGCAA : 2
AGGTGGCCGT : 0.963
ATAATATGTG : 0.997
CGTAAATTGT : 0.967
AAAAAAAGGG : 1.01
TGTTACACCT : 1.23
TAAGGTTTTG : 1.01
TTTTGCCTTA : 1.01
GCTACGACGG : 1.05
AAAAAAATGC : 0.974
GTGATGTTGG : 1.02
CAGCCCGGTC : 1.06
GTTTCTTTCG : 1.01
TATGTAGGTA : 0.994
TGTGAAATAG : 1.02
GGTTCAGGGA : 0.977
GGGGCTATCG : 1.16
AATAAAAAGG : 0.991
GAAGAAAACA : 0.955
ACGGGGCGGC : 1.11
ATGTTAAATC : 0.96
CTATTTACGA : 1.05
TTTTTTGAGA : 0.975
AGGAACGCGG : 1.04
AATGGAAGGG : 1.01
TAAGGCTGC : 1.04
AGCTTGGGTC : 0.994
AAAGGGTAGT : 0.981
GGTGCCGCGG : 1.01
TAGGTTGATG : 0.981
GGCTGGCGGG : 0.99
GATATTTTA : 0.993
GGACAGAGGT : 1
TAATTGCGGT : 1.01
CCAGTGAGGG : 0.99
CAGGGTGCCA : 1
TAAGCTGCGT : 0.989
ACTTATATAG : 1.01
GTTGGTATGT : 0.994
GAGTCAGAGG : 0.989

Just for reference, the supplement of paper PMC10126150 is where these values come from.
